- Test system: Felis catus
- MEASUREMENT_PROTOCOL: Antihypertensive activity in anesthetized normotensive cat assessed as mean reduction of systolic blood pressure at 0.00246 mmol/kg
- Type: functional, Artery
Rule: Systolic blood pressure under 100 mmHg gives criterion not met, otherwise criterion met.

                                   molecule                cat
0          C[C@H](CS)C(=O)N1CCC[C@H]1C(=O)O      criterion met
1  CCOC(=O)C(C)/N=C1\CCN(C(=O)C(C)CS)C1Cc1ccc(OC)cc1 (stereo not given)  criterion not met
2  COc1ccc(CC2/C(=N/O)CCN2C(=O)C(C)CS)cc1 (stereo not given)      criterion met
3  COc1ccc(CC2C(=O)CCN2C(=O)C(C)CS)cc1 (stereo not given)      criterion met

Next, consider the following molecule.
Query :: Record COc1ccc(CC2/C(=N/CCO)CCN2C(=O)C(C)CS)cc1 (stereo not given) ; criterion: Systolic blood pressure no lower than 100 mmHg. Met?
Result :: criterion met
